Assay: in vitro
Assay type: cell-based
Settings: African green monkey
Below, each entry is listed alongside its reported CC50 at 72 h.
Enter your answer as a number in µM; do not include the unit.

Some solved entries appear below for comparison.
**Query** Any idea what its CC50 at 72 h is? The compound is Cc1nccc(Nc2cc(-c3cc(-c4ccccc4C(F)(F)F)n(C)c(=O)c3)ccn2)n1
**Result** 1960

**Query** Any idea what its CC50 at 72 h is? The compound is CCS(=O)(=O)N1CCN(c2cc(-c3ccnc(Nc4ccnc(C)n4)c3)cc(=O)[nH]2)C(C(F)(F)F)C1 (stereo not shown)
**Result** 2760

Could you now look at the following compound, please?
**Query** Any idea what its CC50 at 72 h is? The compound is Cc1nccc(Nc2cc(-c3cc(-c4ccccc4Cl)[nH]c(=O)c3)ccn2)n1
**Result** 0.482

====

Assay: in vitro
Settings: human
measuredQuantity: CC50 (µM)
Enter your answer as a number in µM; do not include the unit.

**Query** Any idea what its CC50 is? The compound is Cc1nccc(Nc2cc(-c3cc(-c4ccccc4C(F)(F)F)n(C)c(=O)c3)ccn2)n1 [Compound 3]
**Result** 1370

**Query** Any idea what its CC50 is? The compound is Cc1nccc(Nc2cc(-c3cc(-c4cccnc4C(F)(F)F)[nH]c(=O)c3)ccn2)n1 [Compound 1]
**Result** 2

**Query** Any idea what its CC50 is? The compound is Cc1nccc(Nc2cc(-c3cc(-c4ccccc4Cl)[nH]c(=O)c3)ccn2)n1 [Compound 2]
**Result** 0.159

Could you now look at the following compound, please?
**Query** Any idea what its CC50 is? The compound is CCS(=O)(=O)N1CCN(c2cc(-c3ccnc(Nc4ccnc(C)n4)c3)cc(=O)[nH]2)C(C(F)(F)F)C1 (stereo not shown) [Compound 4]
**Result** 0.557
